protocol text: Kinetic solubility in PBS
test context: pH 7.4, aqueous buffer, kinetic from dmso stock
Reported solubility at 4 h is given for each of the following molecules.

[
  {
    "molecule": "CN(Cc1nnc(-c2ccccc2)o1)c1nc(=O)c2cc(C(F)(F)F)cc([N+](=O)[O-])c2s1 [Compound 37]",
    "unit text": "µg/mL",
    "solubility at 4 h": 0.25
  },
  {
    "molecule": "CN(Cc1cn(-c2ccccc2)nn1)c1nc(=O)c2cc(C(F)(F)F)cc([N+](=O)[O-])c2s1 [Compound 2]",
    "unit text": "µg/mL",
    "solubility at 4 h": 0.13
  }
]

----------
Reported MIC is given for each of the following molecules.
Test system: M. tuberculosis H37Rv
protocol text: MIC determination by microplate alamar blue assay (MABA)
Assay type: cell-based
test context: Mycobacterium tuberculosis, 168 h, Mtb H37Rv, MABA

[
  {
    "compound": "CN(Cc1cn(-c2cccc(Cl)c2)nn1)c1nc(=O)c2cc(C(F)(F)F)cc([N+](=O)[O-])c2s1",
    "tgt": "M. tuberculosis H37Rv",
    "MIC": "0.014 to 0.207 µM"
  },
  {
    "compound": "Cc1cccc(-n2cc(CN(C)c3nc(=O)c4cc(C(F)(F)F)cc([N+](=O)[O-])c4s3)nn2)c1",
    "tgt": "M. tuberculosis H37Rv",
    "MIC": "0.014 to 0.207 µM"
  },
  {
    "compound": "CN(Cc1csc(-c2ccccc2)n1)c1nc(=O)c2cc(C(F)(F)F)cc([N+](=O)[O-])c2s1",
    "tgt": "M. tuberculosis H37Rv",
    "MIC": "0.015 µM"
  },
  {
    "compound": "CN(Cc1cn(-c2ccc(F)c(F)c2)nn1)c1nc(=O)c2cc(C(F)(F)F)cc([N+](=O)[O-])c2s1",
    "tgt": "M. tuberculosis H37Rv",
    "MIC": "< 0.023 µM"
  },
  {
    "compound": "CN(Cc1cn(-c2cccc(C(F)(F)F)c2)nn1)c1nc(=O)c2cc(C(F)(F)F)cc([N+](=O)[O-])c2s1",
    "tgt": "M. tuberculosis H37Rv",
    "MIC": "0.014 to 0.207 µM"
  },
  {
    "compound": "CN(Cc1cn(-c2ccccc2F)nn1)c1nc(=O)c2cc(C(F)(F)F)cc([N+](=O)[O-])c2s1",
    "tgt": "M. tuberculosis H37Rv",
    "MIC": "0.27 µM"
  },
  {
    "compound": "CN(Cc1cn(-c2cccc(I)c2)nn1)c1nc(=O)c2cc(C(F)(F)F)cc([N+](=O)[O-])c2s1",
    "tgt": "M. tuberculosis H37Rv",
    "MIC": "0.014 to 0.207 µM"
  }
]

----------
protocol text: Pharmacokinetic study in mice
Type: in vivo
test context: male, ICR, mouse, plasma, IV 2 mg/kg

[
  {
    "compound": "CN(Cc1nnc(-c2ccccc2)o1)c1nc(=O)c2cc(C(F)(F)F)cc([N+](=O)[O-])c2s1",
    "unit text": "ng·h/mL",
    "AUC": 528
  },
  {
    "compound": "CN(Cc1cn(-c2ccccc2)nn1)c1nc(=O)c2cc(C(F)(F)F)cc([N+](=O)[O-])c2s1",
    "unit text": "ng·h/mL",
    "AUC": 1210
  }
]

----------
Test system: M. tuberculosis H37Rv
protocol text: MIC determination by microplate alamar blue assay (MABA)
Type: cell-based
test context: Mycobacterium tuberculosis, 168 h, Mtb H37Rv, MABA
Reported MIC is given for each of the following compounds.

[
  {
    "compound": "CN(Cc1cn(-c2ccccc2)nn1)c1nc(=O)c2cc(C(F)(F)F)cc([N+](=O)[O-])c2s1",
    "MIC [µM]": 0.009
  },
  {
    "compound": "CN(Cc1cn(C2CCCCC2)nn1)c1nc(=O)c2cc(C(F)(F)F)cc([N+](=O)[O-])c2s1",
    "MIC [µM]": 0.032
  }
]

----------
Reported half-life is given for each of the following compounds.
protocol text: Pharmacokinetic study in mice
Assay type: in vivo
test context: male, ICR, mouse, plasma, PO 10 mg/kg

[
  {
    "compound": "CN(Cc1nnc(-c2ccccc2)o1)c1nc(=O)c2cc(C(F)(F)F)cc([N+](=O)[O-])c2s1",
    "half-life (min)": 36
  },
  {
    "compound": "CN(Cc1cn(-c2ccccc2)nn1)c1nc(=O)c2cc(C(F)(F)F)cc([N+](=O)[O-])c2s1",
    "half-life (min)": 78
  }
]

----------
System: M. tuberculosis H37Rv
protocol text: MIC determination by microplate alamar blue assay (MABA)
Assay type: cell-based
test context: Mycobacterium tuberculosis, 168 h, Mtb H37Rv, MABA
Reported MIC is given for each of the following compounds.

[
  {
    "compound": "CN(Cc1csc(-c2ccc(F)cc2)n1)c1nc(=O)c2cc(C(F)(F)F)cc([N+](=O)[O-])c2s1",
    "tgt": "M. tuberculosis H37Rv",
    "qual": "=",
    "MIC / µM": 0.034
  },
  {
    "compound": "CN(Cc1cn(-c2cc(F)cc(F)c2)nn1)c1nc(=O)c2cc(C(F)(F)F)cc([N+](=O)[O-])c2s1",
    "tgt": "M. tuberculosis H37Rv",
    "qual": "<",
    "MIC / µM": 0.023
  },
  {
    "compound": "CN(Cc1cn(-c2cccc(F)c2)nn1)c1nc(=O)c2cc(C(F)(F)F)cc([N+](=O)[O-])c2s1",
    "tgt": "M. tuberculosis H37Rv",
    "qual": "=",
    "MIC / µM": 0.008
  },
  {
    "compound": "CN(Cc1csc(-c2cccc(F)c2)n1)c1nc(=O)c2cc(C(F)(F)F)cc([N+](=O)[O-])c2s1",
    "tgt": "M. tuberculosis H37Rv",
    "qual": "=",
    "MIC / µM": 0.032
  },
  {
    "compound": "CN(Cc1cn(-c2ccc(F)cc2)nn1)c1nc(=O)c2cc(C(F)(F)F)cc([N+](=O)[O-])c2s1",
    "tgt": "M. tuberculosis H37Rv",
    "qual": "=",
    "MIC / µM": 0.012
  }
]

----------
protocol text: Pharmacokinetic study in mice
Type: in vivo
test context: male, ICR, mouse, plasma, oral, p.o. 10 mg/kg vs i.v. 2 mg/kg, read-out: F (oral bioavailability)
Description: Animal Care and Welfare Committee of Shanghai Institute of Materia Medica, Chinese Academy of Sciences approved all animal protocols. All animal programs are in compliance with the Guide for the Care and Use of Laboratory Animals issued by Shanghai Association on Laboratory Animal Care (SALAC). […] Based on noncompartmental analysis (Pharsight Corporation, Sunnyvale, CA, USA), the pharmacokinetic data were analyzed using WinNonlin software version 6.3.

[
  {
    "compound": "CN(Cc1cn(-c2ccccc2)nn1)c1nc(=O)c2cc(C(F)(F)F)cc([N+](=O)[O-])c2s1 [Compound 2]",
    "bioavailability / %": 35.7
  },
  {
    "compound": "CN(Cc1nnc(-c2ccccc2)o1)c1nc(=O)c2cc(C(F)(F)F)cc([N+](=O)[O-])c2s1 [Compound 37]",
    "bioavailability / %": 70.6
  }
]

----------
protocol text: in vitro
Type: in vitro ADME
Parameters: dose or concentration left out as unconfirmed
test context: human, microsomes, pH 7.4
measured metric: half-life

[
  {
    "compound": "CN(Cc1cn(-c2ccccc2)nn1)c1nc(=O)c2cc(C(F)(F)F)cc([N+](=O)[O-])c2s1",
    "recorded result": "100 min"
  },
  {
    "compound": "CN(Cc1csc(-c2ccccc2)n1)c1nc(=O)c2cc(C(F)(F)F)cc([N+](=O)[O-])c2s1",
    "recorded result": "24.3 min"
  },
  {
    "compound": "CN(Cc1nnc(-c2ccccc2)s1)c1nc(=O)c2cc(C(F)(F)F)cc([N+](=O)[O-])c2s1",
    "recorded result": "34.3 min"
  },
  {
    "compound": "CN(Cc1csc(-c2ccc(F)cc2)n1)c1nc(=O)c2cc(C(F)(F)F)cc([N+](=O)[O-])c2s1",
    "recorded result": "68.2 min"
  },
  {
    "compound": "CN(Cc1coc(-c2ccccc2)n1)c1nc(=O)c2cc(C(F)(F)F)cc([N+](=O)[O-])c2s1",
    "recorded result": "33.6 min"
  },
  {
    "compound": "CN(Cc1nnc(-c2ccccc2)o1)c1nc(=O)c2cc(C(F)(F)F)cc([N+](=O)[O-])c2s1",
    "recorded result": "68.2 min"
  }
]
